study.system: SIX1-Q177R homeodomain (human, UniProt Q15475 108-198, Q177R)
Sequence: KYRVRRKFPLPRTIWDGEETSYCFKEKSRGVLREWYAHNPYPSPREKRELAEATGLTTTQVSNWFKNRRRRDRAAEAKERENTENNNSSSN
assay.info: universal protein binding microarray; Universal all-10-mer PBM (8x60K, AMADID 030236), 300 nM GST-tagged protein, Alexa Fluor 488 anti-GST; buffer, salt, pH and temperature not stated (as in Berger); high values mean tight binding
stated.conditions: protein: ivt; tags: N-terminal GST; dsDNA, one strand shown
Over roughly 33,000 sequences, “e-score” has its median near -0.05; the highest 2% begin near 0.38. The sample as a whole holds a higher share of the highest values than the screen did.
readout.name: binding signal (E-score)
I only need the number, in E-score, no unit after it.

>>> readout_number("ACGCTGGG")
0.154
>>> readout_number("AACACTAT")
0.295
>>> readout_number("AACACTAG")
0.357

Let me check: AACGAGTG , system SIX1-Q177R homeodomain (human, UniProt Q15475 108-198, Q177R), measured binding signal is 0.189

Let me check: GTGTGAAA , system SIX1-Q177R homeodomain (human, UniProt Q15475 108-198, Q177R), measured binding signal is 0.356

Let me check: ACACTGAT , system SIX1-Q177R homeodomain (human, UniProt Q15475 108-198, Q177R), measured binding signal is 0.374

Let me check: ATTAGGTG , system SIX1-Q177R homeodomain (human, UniProt Q15475 108-198, Q177R), measured binding signal is 0.296

Let me check: ATCCCCCG , system SIX1-Q177R homeodomain (human, UniProt Q15475 108-198, Q177R), measured binding signal is 0.266

Let me check: AGTGTGAT , system SIX1-Q177R homeodomain (human, UniProt Q15475 108-198, Q177R), measured binding signal is 0.223

Let me check: CGTGTAAA , system SIX1-Q177R homeodomain (human, UniProt Q15475 108-198, Q177R), measured binding signal is 0.435

Let me check: ACCCGGAA , system SIX1-Q177R homeodomain (human, UniProt Q15475 108-198, Q177R), measured binding signal is 0.272

Let me check: AGTGTATG , system SIX1-Q177R homeodomain (human, UniProt Q15475 108-198, Q177R), measured binding signal is 0.36

Let me check: CACCACTC , system SIX1-Q177R homeodomain (human, UniProt Q15475 108-198, Q177R), measured binding signal is 0.322

---

study.system: SIX1-Q177R homeodomain (human, UniProt Q15475 108-198, Q177R)
Sequence: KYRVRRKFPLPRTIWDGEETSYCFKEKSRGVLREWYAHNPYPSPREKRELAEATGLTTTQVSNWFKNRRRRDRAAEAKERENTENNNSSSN
assay.info: universal protein binding microarray; Universal all-10-mer PBM (8x60K, AMADID 030236), 300 nM GST-tagged protein, Alexa Fluor 488 anti-GST; buffer, salt, pH and temperature not stated (as in Berger); high values mean tight binding
stated.conditions: protein: ivt; tags: N-terminal GST; dsDNA, one strand shown
Whole data set: some 33,000 sequences, median “e-score” near -0.05, cut for the highest 2% near 0.38. The list comes from a sample in which the highest values are over-represented; it also holds close analogues and randomly drawn sequences.
readout.name: binding signal (E-score)
I only need the number, in E-score, no unit after it.

>>> readout_number("GTAGTACA")
0.277
>>> readout_number("ATACCCCC")
0.364
>>> readout_number("TATTGACA")
0.194
>>> readout_number("ATACACCC")
0.46
>>> readout_number("ACGACCCG")
0.179

Let me check: GTACTCCA , system SIX1-Q177R homeodomain (human, UniProt Q15475 108-198, Q177R), measured binding signal is 0.178
